Just for reference, ChEMBL document CHEMBL4392822 is where these values come from.

Sequence of the target: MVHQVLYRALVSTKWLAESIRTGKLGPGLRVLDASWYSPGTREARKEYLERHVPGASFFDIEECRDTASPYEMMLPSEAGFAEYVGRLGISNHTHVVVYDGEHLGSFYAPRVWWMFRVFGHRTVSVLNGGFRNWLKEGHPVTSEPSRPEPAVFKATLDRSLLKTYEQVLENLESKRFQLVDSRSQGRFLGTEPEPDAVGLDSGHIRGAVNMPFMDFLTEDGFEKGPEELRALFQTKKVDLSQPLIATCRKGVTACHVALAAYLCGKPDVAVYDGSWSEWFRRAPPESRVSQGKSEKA
outcome measure: IC50

# input Quick one: IC50 of CCCCN1CCC(COC(=O)c2cc(Cl)c(N)c3c2OCCO3)CC1 ?
# output > 100 µM

# input Quick one: IC50 of C=C(CC)C(=O)c1ccc(OCC(=O)O)c(Cl)c1Cl [ETHACRYNIC ACID] ?
# output > 100 µM

# input Quick one: IC50 of Cc1ccc(C(=O)Nc2ccc(S(=O)(=O)O)c3cc(S(=O)(=O)O)cc(S(=O)(=O)O)c23)cc1NC(=O)c1cccc(NC(=O)Nc2cccc(C(=O)Nc3cc(C(=O)Nc4ccc(S(=O)(=O)O)c5cc(S(=O)(=O)O)cc(S(=O)(=O)O)c45)ccc3C)c2)c1 [SURAMIN] ?
# output > 100 µM
